assay: qHTS for Inhibitors of binding or entry into cells for Marburg Virus; settings: Marburg virus pseudotype entry/binding inhibition, cell-based; series mostly up to 49.2 µM; note: potency is the fitted concentration of half-maximal effect
In all, about 18,000 compounds went through this assay and about 1,200 (6.7%) were called active. About 16% were inconclusive and are not listed. The sample as a whole holds a higher share of actives than the screen did.
RESULT_TYPE: Potency

Reference set, count: 7
{"COMPOUND": "CC[C@H]1CN2CCc3cc(OC)c(OC)cc3[C@@H]2C[C@@H]1C[C@H]1NCCc2cc(OC)c(OC)cc21", "RESULT_TYPE": "Potency", "REPORTED_RESULT": "0.398 µM (active)"}
{"COMPOUND": "COC(=O)Nc1nc2ccc(Oc3ccc(NC(=O)Nc4cccc(Cl)c4)cc3)cc2[nH]1", "RESULT_TYPE": "Potency", "REPORTED_RESULT": "4.99 µM (active)"}
{"COMPOUND": "CN1CCCC1CCO[C@@](C)(c1ccccc1)c1ccc(Cl)cc1 (stereo partly drawn)", "RESULT_TYPE": "Potency", "REPORTED_RESULT": "10 µM (active)"}
{"COMPOUND": "CC[C@@H]1CN2CC[C@@H]1C[C@H]2[C@H](O)c1ccnc2ccc(OC)cc12", "RESULT_TYPE": "Potency", "REPORTED_RESULT": "31.6 µM (active)"}
{"COMPOUND": "CC(=O)OC[C@H]1O[C@@H](O[C@H]2[C@H](O)[C@@H](OC(=O)c3ccccc3C(=O)O)[C@H](O)O[C@@H]2COC(C)=O)[C@H](O)[C@@H](OC(=O)c2ccccc2C(=O)O)[C@@H]1O", "RESULT_TYPE": "Potency", "REPORTED_RESULT": "3.55 µM (active)"}
{"COMPOUND": "C[C@@H]1C[C@H]2CC[C@H](O2)[C@H](C)C(=O)O[C@@H](C)C[C@@H]2CC[C@@H](O2)[C@@H](C)C(=O)O[C@H](C)C[C@H]2CC[C@H](O2)[C@H](C)C(=O)O[C@@H](C)C[C@@H]2CC[C@@H](O2)[C@@H](C)C(=O)O1", "RESULT_TYPE": "Potency", "REPORTED_RESULT": "0.631 µM (active)"}
{"COMPOUND": "CCCN(CCc1ccccc1)C1CCc2c(O)cccc2C1 (stereo not drawn)", "RESULT_TYPE": "Potency", "REPORTED_RESULT": "35.5 µM (active)"}

Kindly review the next compound as well.
Note down Potency recorded for COc1ccc2[nH]cc(CCNc3ncnc4ccc(-c5ccccc5CN(C)C)cc34)c2c1
10 µM (active)

---

assay: qHTS for Inhibitors of binding or entry into cells for Marburg Virus; details: Marburg virus pseudotype entry/binding inhibition, cell-based; series mostly up to 49.2 µM; for activity change, negative = inhibition: % is set by controls: 0 for no effect and ±100 for the full control effect
Hit rate of the full screen: of about 18,000 compounds, about 1,200 (6.7%) were called active. About 16% were inconclusive and are not listed. This is one part of a sample in which actives are shown more often than they occur.
RESULT_TYPE: activity change, negative = inhibition

Examples from the recorded data:
{"MOLECULE": "Clc1ccc(C(Cn2ccnc2)OCc2ccsc2Cl)c(Cl)c1 (centres undefined)", "activity change, negative = inhibition": "inactive"}
{"MOLECULE": "CC12C=C(C=Cc3ccc(F)cc3)C(C)(C1)C(c1ccc(F)cc1)CC2=O (centres undefined)", "activity change, negative = inhibition": "8.67% [at 8.59 µM] (inactive)"}
{"MOLECULE": "CC(C)(C)OC(=O)NCCCC1=CC2=CC(=O)C(C)(OC(=O)c3ccco3)C(=O)C2=CO1 (centres undefined)", "activity change, negative = inhibition": "inactive"}
{"MOLECULE": "C[C@H]1[C@H](c2ccccc2)Oc2cc(Br)ccc2S(=O)(=O)N1Cc1cccc(F)c1", "activity change, negative = inhibition": "inactive"}
{"MOLECULE": "O=C1CCC[C@@H]2CC(N3CCCCC3)C[C@@H]3CCN1[C@H]23 (some centres undefined)", "activity change, negative = inhibition": "inactive"}
{"MOLECULE": "Cc1c(S(=O)(=O)O)oc2c1C(=O)C(=O)c1c-2ccc2c1CCCC2(C)C", "activity change, negative = inhibition": "inactive"}

Let me know recorded activity change, negative = inhibition for COC(=O)CC=C[C@@H](C)[C@H](NC(=O)OCC(Cl)(Cl)Cl)c1ccc2ccccc2c1 , thanks.
-17.9% [at 8.59 µM] (inactive)

Return reported activity change, negative = inhibition. Input molecule: CC[C@H](C)[C@H](NC(=O)[C@@H](N)CCC(=O)O)C(=O)N[C@@H](CC(C)C)C(=O)N[C@@H](CC(=O)O)C(=O)N[C@H](C(=O)N1CCC[C@H]1C(=O)N[C@@H](CO)C(=O)N[C@H](C(=O)O)[C@@H](C)O)C(C)C
inactive

Give recorded activity change, negative = inhibition. C[C@@H]1C(c2ccc(F)cc2)=NN(c2ccc(Br)cc2)[C@H]1C(=O)N1CCOC1=O
inactive
